Values compiled from PubChem BioAssay (Tox21).

assay: qHTS assay to identify small molecule agonists of the TGF-beta/Smad signaling pathway (AID 1346859); conditions: SBE-bla HEK293T, TGF-beta/Smad beta-lactamase reporter, 5 h; series mostly up to 76.8 µM
Records with an inconclusive call do not appear. The source made the active and inactive calls. The call rests on the fitted dose curve; in most records, active means well fitted activation curve with a large enough effect in the signal ratio in the repeat runs (not every such curve was filed as active); inconclusive means weak or mixed curves; inactive means flat fitted curve, though single readings scatter; the % refers to the signal ratio.
value kind: activation

INSERT INTO assay_data (molecule, value_kind, observed_value) VALUES
  ('CCOC(=O)CCl', 'activation', 'inactive'),
  ('O=P(O)(O)c1ccccc1', 'activation', 'inactive'),
  ('BrCC1CO1 (stereo unspecified)', 'activation', 'inactive'),
  ('O=C(NC(=O)c1c(F)cccc1F)Nc1cc(Cl)c(F)c(Cl)c1F', 'activation', 'inactive'),
  ('CN=CNc1ccc(C)cc1C', 'activation', 'inactive'),
  ('CN(C)C1CCCCC1', 'activation', 'inactive'),
  ('COc1cccc(C=O)c1', 'activation', 'inactive'),
  ('CCc1ccc(C2CCNCC2)cc1', 'activation', 'inactive'),
  ('[O-][Br+2]([O-])O', 'activation', 'inactive'),
  ('CON(C)C(=O)Nc1ccc(Br)c(Cl)c1', 'activation', 'inactive'),
  ('O=C(Cl)OCc1ccccc1', 'activation', 'inactive'),
  ('CC(C)(C)NC[C@H](O)c1ccc(O)cc1Cl', 'activation', 'inactive'),
  ('O=C(Cl)/C=C/C(=O)Cl', 'activation', 'inactive'),
  ('CN1C(=O)COc2c(C(=O)NC3CN4CCC3CC4)cc(Cl)cc21 (stereo unspecified)', 'activation', 'inactive'),
  ('OCC(Cl)CCl (stereo unspecified)', 'activation', 'inactive'),
  ('CNC(=O)Oc1ccccc1C(C)C', 'activation', 'inactive');
